The origin of these recorded values is the supplement of paper PMC6755084.

System: F1*sub RNA substrate (template-directed ligation)
Experiment: fraction ligated after 30 min (ligated reads / total reads); higher = more ligase activity; sequences stand for … in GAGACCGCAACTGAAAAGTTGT…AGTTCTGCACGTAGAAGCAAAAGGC
Conditions: 42 °C
Kindly return 1 (yes) if reported fraction ligated is no lower than 0.5; return 0 (no) if it is lower.

sequence.string | category
TCACTTGTCGTAAGACACTTTGGTGGGTTGA [3d19] | 0 (no)
TATCACTTGTCGTAGACATTTGGATGGTTGA [3d2032] | 0 (no)
TATACTTGCGTAAGACACTTGGATGGGTTGA [3d821] | 0 (no)
TATCACTTGTCGTAGACCTTTGGTGGGTTGA [3d2023] | 0 (no)
TATCACTTGTCGTAAGACACTTGGATGGGTTA [2d281] | 1 (yes)
TAACTTGTGTAAGACACTTTGGATGGGTTGA [3d512] | 1 (yes)
TTCACTTGCGAAGACACTTTGGATGGGTTGA [3d373] | 1 (yes)
TATCACTTGTCGTAAGAACTTTGGATGGGTTG [2d261] | 1 (yes)
TATCACTTGCTAAGACATTTGGATGGGTTGA [3d1605] | 1 (yes)
TATCACTTGTCTAAGACACTTTGGGGGTTGA [3d1891] | 0 (no)
TATCACTTGTCGTAGCACTTGGATGGGTTGA [3d2006] | 1 (yes)
TATCCGTCGTAAGACACTTTGGATGGGTTGA [3d949] | 1 (yes)
TTCACTGTCGTAAGACACTTTGGATGGGTTGA [2d28] | 1 (yes)
TATCACTTGTCTAAGACACTTTGGATGGGTT [3d1900] | 1 (yes)
TATCTTGTCGTAAGACACTTTGGTGGGTTGA [3d753] | 1 (yes)
TATCACTTGTGTAGACCTTTGGATGGGTTGA [3d1735] | 1 (yes)
TATCACTTGTGTAAGCACTTGGATGGGTTGA [3d1757] | 1 (yes)
TATCACTTGTGTAAGCACTTTGGATGGGTTG [3d1763] | 1 (yes)
TATCACTTGTCGTAAGACACTTTGTGGGTTGA [2d284] | 0 (no)
TATCACTTGTTAGACACTTTGGATGGGTTGA [3d1705] | 1 (yes)
TACCTTGTCGTAAACACTTTGGATGGGTTGA [3d535] | 0 (no)
TACATTGTCGTAAGACACTTGGATGGGTTGA [3d559] | 0 (no)
TATCACTTGTCGTAGACACTTGGAGGGTTGA [3d2038] | 0 (no)
TATCACTTGTCGTAACACTTTGGAGGGTTGA [3d1999] | 0 (no)
TATACTTGTCGTAAGACCTTTGGATGGGTTG [3d917] | 1 (yes)
TATCATTGCGTAAGAACTTTGGATGGGTTGA [3d1162] | 1 (yes)
TATCACTTTGTAAGACACTTTGATGGGTTGA [3d1473] | 1 (yes)
TATCACTGTCGTAAGCACTTTGGATGGGTTG [3d1417] | 1 (yes)
TATCACTTGTGTAAACACTTTGGATGGGTTA [3d1752] | 1 (yes)
TATCCTTGTCGTAAGAACTTTGGTGGGTTGA [3d1078] | 0 (no)
TATCACTTTCGTAAGACATTTGGATGGGTTG [3d1560] | 1 (yes)
TATCACTTGCGTAACACTTTGGATGGGTTGA [3d1627] | 1 (yes)
TATCACTTGTCGAAGACACTTGGTGGGTTGA [3d1959] | 0 (no)
TATATTGTCGTAAGACACTTTGGATGGGTTA [3d775] | 0 (no)
ATCACTTGCGTAAGACACTTTGATGGGTTGA [3d150] | 1 (yes)
TTCACTTGTCGAAGACACTTTGGATGGGTTG [3d428] | 1 (yes)
TATACTTGCGAAGACACTTTGGATGGGTTGA [3d814] | 1 (yes)
TATCTTGTCGTAAGACACTTGGATGGGTTGA [3d751] | 1 (yes)
ATCACTTGTCGTAAACACTTTGGTGGGTTGA [3d216] | 0 (no)
TATCACTTGTCGAAGACACTTTGATGGGTTG [3d1969] | 1 (yes)
TATCACTTGTCGAGACACTTTGATGGGTTGA [3d1909] | 1 (yes)
TATCACTTGTCGTAAGACACTTGGATGGGTT [3d2253] | 0 (no)
TATATTGTCGTAAGAACTTTGGATGGGTTGA [3d767] | 0 (no)
TATCACTTGTGTAAGACACTTTGGAGGTTGA [3d1803] | 0 (no)
TATCATTGTCGTAAGAACTTGGATGGGTTGA [3d1248] | 1 (yes)
ATCACTTGTCGTAGACACTTTGGATGGTTGA [3d208] | 1 (yes)
TATCACTTGCGTAAACACTTTGGATGGTTGA [3d1646] | 0 (no)

---

Test system: F1*sub RNA substrate (template-directed ligation)
Experiment: fraction ligated after 30 min (ligated reads / total reads); higher = more ligase activity; sequences stand for … in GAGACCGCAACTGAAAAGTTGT…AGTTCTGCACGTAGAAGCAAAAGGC
Details: 42 °C
Reported values of fraction ligated for individual entries
parameter: fraction ligated

sequence.string | parameter | measured.value
TATCACTTGTCGTAAGCATTTGGATGGGTTGA [2d246] | fraction ligated | 0.849
TATCACTGTCTAAGAACTTTGGATGGGTTGA [3d1362] | fraction ligated | 0.849
TATCACTGTCGTAAGACATTTGGTGGGTTGA [3d1435] | fraction ligated | 0.752
TATCACTTTCGTAAGACACTTTGGTGGGTTA [3d1576] | fraction ligated | 0.0309
TATCACTGTCGTAAGCACTTTGGAGGGTTGA [3d1414] | fraction ligated | 0.0753
ATCACTTGTGTAGACACTTTGGATGGGTTGA [3d158] | fraction ligated | 0.864

---

Reported fraction ligated by item:
Test system: F1*sub RNA substrate (template-directed ligation)
Assay: fraction ligated after 30 min (ligated reads / total reads); higher = more ligase activity; sequences stand for … in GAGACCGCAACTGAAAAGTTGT…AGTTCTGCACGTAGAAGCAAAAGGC
Details: 42 °C
parameter: fraction ligated

sequence.string | measured.value
TTCACTTGTCTAAGACATTTGGATGGGTTGA [3d408] | 0.753
TACATTGCGTAAGACACTTTGGATGGGTTGA [3d549] | 0.0211
TATCATTGCGTAAGCACTTTGGATGGGTTGA [3d1161] | 0.799
TATCACTGCGTAAGACACTTTGGATGGTTGA [3d1340] | 0.15
TATCACTTGCTAAGAACTTTGGATGGGTTGA [3d1603] | 0.831
TATCACTTGTCGTAAGAATTGGATGGGTTGA [3d2152] | 0.785
TATCACTTGTGTAAGACTTTGGATGGGTTGA [3d1754] | 0.868
TTACTTGTCGTAAGCACTTTGGATGGGTTGA [3d287] | 0.00788
TATCACTTGCGTAAGAACTTTGGATGGTTGA [3d1664] | 0.0836
TATCACTTGTCAAGACACTTTGGATGGGTTA [3d1821] | 0.781
TTCACTGTCGTAAGACACTTGGATGGGTTGA [3d348] | 0.762

---

Each record here notes measured fraction ligated.
Tested on: F1*sub RNA substrate (template-directed ligation)
Experiment: fraction ligated after 30 min (ligated reads / total reads); higher = more ligase activity; sequences stand for … in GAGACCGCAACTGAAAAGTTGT…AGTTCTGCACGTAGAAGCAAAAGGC
Settings: 42 °C

sequence.string | fraction ligated
TATCATTGTGTAAGACACTTGGATGGGTTGA [3d1180] | 0.799
TATCACTTGTGTAAGACACTTTGGAGGGTTG [3d1805] | 0.0238
TCACTTGTCGTAAGAACTTTGGATGGGTTGA [3d14] | 0.399
TACACTTGTCGTAAGCACTTTGGAGGGTTGA [3d688] | 0.0515
TTCACTTGTCGTAAGACCTTTGGATGGGTTGA [2d38] | 0.793
TTCACGTCGTAAGACACTTTGGATGGGTTGA [3d336] | 0.658

---

System: F1*sub RNA substrate (template-directed ligation)
Test: fraction ligated after 30 min (ligated reads / total reads); higher = more ligase activity; sequences stand for … in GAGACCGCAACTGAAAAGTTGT…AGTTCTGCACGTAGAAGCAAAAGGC
Details: 42 °C
// values below are reported fraction ligated
parameter: fraction ligated

sequence.string | measured.value
TTCACTTGTCGAAGACACTTGGATGGGTTGA [3d422] | 0.5
TATCACTTGGTAAACACTTTGGATGGGTTGA [3d1587] | 0.826
ATCACTTGTCGTAAGACACTTTGGAGGGTTG [3d272] | 0.094
TACACTTGCGTAAGACACTTTGGATGGGTTA [3d615] | 0.013
TTCACTGTGTAAGACACTTTGGATGGGTTGA [3d339] | 0.766
TATCACTGTGAAGACACTTTGGATGGGTTGA [3d1344] | 0.863
TTCACTTTCGTAAGAACTTTGGATGGGTTGA [3d361] | 0.832
TATCACTTGTCGTAAACCTTTGATGGGTTGA [3d2068] | 0.672
TATCCTTGTCGTAAGACCTTTGGATGGTTGA [3d1087] | 0.0339
TATCACTTGTCGTAAGACACTTTTGGGTTGA [3d2255] | 0.0315
TATCACTTGTCTAACACTTTGGATGGGTTGA [3d1824] | 0.8
TATCACTGTCGTAAGCACTTTGATGGGTTGA [3d1412] | 0.686
TTCACTTTCGTAAGCACTTTGGATGGGTTGA [3d360] | 0.466
TATCACTTGTCGTAAGACACTTGGAGGGTTG [3d2250] | 0.00522
TATCACTTGTCGTAAGCCTTTGGATGGGTTG [3d2120] | 0.782
TATACTTGTCGTAAGACCTTTGATGGGTTGA [3d912] | 0.706
TATCACTTGCGAAGCACTTTGGATGGGTTGA [3d1615] | 0.817
TATCCTTGTCTAAGACACTTTGGATGGGTTA [3d1027] | 0.394
TTCACTTGTCGTAAGACCTTTGGATGGGTTG [3d476] | 0.77
ATCACTTGTCGTAGACACTTTGGATGGGTTGA [2d12] | 0.789
ATCACTTGTCGTAAGACCTTTGGATGGTTGA [3d243] | 0.712
TACACTTGTCGTAAGACACTTTGGTGGGTTGA [2d64] | 0.153
TACACTTGTCGTAAGACACTTTGGAGGGTTGA [2d65] | 0.182
TATCACGTCGTAAACACTTTGGATGGGTTGA [3d1299] | 0.787
ATCACTTGTCGAAGACACTTTGGTGGGTTGA [3d193] | 0.0564
TATCACTTGTCAAGACATTTGGATGGGTTGA [3d1815] | 0.829
TATCACTTGTCGTAAGACATTGGATGGGTTG [3d2213] | 0.797
TATACTTGTCTAAGACACTTTGGTGGGTTGA [3d852] | 0.0368
TACACTTGTCGTAAACACTTTGGTGGGTTGA [3d677] | 0.0298
TACCTTGTCGTAAGACACTTTGATGGGTTGA [3d541] | 0.304
TATACTTGTCGAAGACACTTTGGATGGGTTA [3d868] | 0.0412
TATCCTTGTCGTAAGCACTTTGGATGGTTGA [3d1072] | 0.0464
TATCACTTTCGTAAGACACTTTGAGGGTTGA [3d1570] | 0.0593
TATCACTTGTTAAGACACTTTGATGGGTTGA [3d1712] | 0.786
ATCACTTGTCGTAAGCACTTTGGATGGGTTG [3d230] | 0.731
TATACTTGTCGTAAAACTTTGGATGGGTTGA [3d883] | 0.799
TATCACTTGTTAAGCACTTTGGATGGGTTGA [3d1707] | 0.797
TATCATTGTCGAAGACACTTTGGATGGTTGA [3d1211] | 0.21
TTCACTTTCGTAAGACCTTTGGATGGGTTGA [3d362] | 0.437
TTCTTGTCGTAAGACACTTTGGATGGGTTGA [3d277] | 0.765
TATCACTGTCGTAAGACACTTTGGGGGTTGA [3d1453] | 0.0319
TATCACTTGTCGTAAGCACTTTGATGGGTTGA [2d248] | 0.751
TATCATTGTCGTAAAACTTTGGATGGGTTGA [3d1227] | 0.787
TATACTTGTCGAAGACATTTGGATGGGTTGA [3d862] | 0.762
TTCCTTGTCGTAAGACACTTTGGATGGGTTGA [2d26] | 0.778
TATACTTGTCGTAAACACTTTGATGGGTTGA [3d887] | 0.182
TATCACTTTCGTAAGACACTTTGGATGGGTT [3d1583] | 0.22
